Would you mind telling me the reported Kd of each entry?
Target: T1, mouse VISTA recombinant protein (Sino Biological Inc., Cat. #51550-M08H), biotinylated (mouse, UniProt Q9D659 33-191, biotinylated using EZ-LINK NHS-PEG4 biotin)
T1 chain: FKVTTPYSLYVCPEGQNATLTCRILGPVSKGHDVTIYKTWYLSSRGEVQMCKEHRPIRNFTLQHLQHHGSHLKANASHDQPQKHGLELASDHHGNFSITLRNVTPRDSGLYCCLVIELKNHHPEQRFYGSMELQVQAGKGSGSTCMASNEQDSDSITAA
Test: Octet (BLI)

Illustrative cases are given below, each with its answer.
{"binder": "9F9 humanized anti-VISTA antibody VH7/VL7 (antibody, V domains shown) VH: QVQFVQSGAEVKKPGASVKVSCKASGYTFTGYWMQWVKQAPGQRLEWIGAIYPGDGDTRYSQKFKGKVTLTADTSASTAYMELSSLRSEDTAVYYCARRDYGAWFAYWGQGTLVTVSS VL: DIKVTQSPSSLSASVGDRVTITCKASQDINSYLSWYQQKPGKAPKTLIYRANRLVDGVPSRFSGSGSGQEYTLTISSLQPEDFATYYCLQYDEFPYTFGQGTKVEIK", "Kd": "866 nM"}
{"binder": "9F9 humanized anti-VISTA antibody VH9/VL9 (antibody, V domains shown) VH: QVQFVQSGAEVKKPGSSVKVSCKASGYTFSGYWMQWVKQAPGQGLEWIGAIYPGDGDTRYSQKFKGKVTLTADESTSTAYMELSSLRSEDTAVYYCARRDYGAWFAYWGQGTLVTVSS VL: DIKVTQSPSSLSASVGDRVTITCKASQDINSYLSWYQQKPGKAPKTLIYRANRLVDGVPSRFSGSGSGQDYTFTISSLQPEDIATYYCLQYDEFPYTFGQGTKVEIK", "Kd": "607 nM"}
{"binder": "9F9 parental anti-VISTA antibody (VH0/VL0) (antibody, V domains shown) VH: QVQFQQSGAELARPGASVKLSCKASGYTFTGYWMQWVKQRPGQGLEWIGAIYPGDGDTRYSQKFKGKVTLTADKSSSTAYMQLSSLASEDSAVYYCARRDYGAWFAYWGQGTLVTVSA VL: DIKVTQSPSSMYASLGERVTITCKASQDINSYLSWFQQKPGKSPKTLIYRANRLVDGVPSRFSGSGSGQDYSLTISSLDYEDMGIYYCLQYDEFPYTFGGGTKLEIK", "Kd": "5.03 nM"}

Read the next record carefully.
Entry under test: 9F9-VH8/VL8 (antibody, V domains shown) VH: QVQFVQSGAEVKKPGASVKVSCKASGYTFTGYWMQWVKQAPGQGLEWIGAIYPGDGDTRYSQKFKGKVTLTADKSTSTAYMELSSLRSEDTAVYYCARRDYGAWFAYWGQGTLVTVSS VL: DIKVTQSPSSLSASVGDRVTITCKASQDINSYLSWYQQKPEKAPKTLIYRANRLVDGVPSRFSGSGSGTDFTLTISSLQPEDFATYYCLQYDEFPYTFGQGTKVEIK . Its Kd was 336 nM
